Test system: Linezolid and Vancomycin Resistant Enterococcus faecalis
Assay: In vitro antibacterial activity, broth microdilution MIC90
Format: cell-based
Conditions: Enterococcus faecalis
// boundary case: MIC90 equal to 2 µg/mL maps to -1; strictly smaller maps to 1

COC(=O)NC[C@H]1CN(c2ccc(-c3ccc(N4C=NN(C)CC4)nc3)c(F)c2)C(=O)O1 [Compound 24]: -1
CNC(=O)N1CCN(c2ccc(-c3ccc(N4C[C@H](CNC(C)=O)OC4=O)cc3F)cn2)C=N1 [Compound 16]: 1
CC(=O)NC[C@H]1CN(c2ccc(-c3ccc(N4C=NN(CC(=O)O)CC4)nc3)c(F)c2)C(=O)O1 [Compound 10]: -1
CC(=O)NC[C@H]1CN(c2ccc(-c3ccc(N4CCNC=N4)nc3)c(F)c2)C(=O)O1 [Compound 53]: -1
CC(=O)NC[C@H]1CN(c2ccc(-c3ccc(N4C=NN(C(=O)C5COC(C)(C)O5)CC4)nc3)c(F)c2)C(=O)O1 (some centres unmarked) [Compound 20]: -1
O=C1O[C@@H](Cn2ccnn2)CN1c1ccc(-c2ccc(N3C=NNCC3)nc2)c(F)c1 [Compound 30]: -1
CC(=O)NC[C@H]1CN(c2ccc(-c3ccc(N4C=NN(C(N)=O)CC4)nc3)c(F)c2)C(=O)O1 [Compound 17]: 1
C#CCN1CCN(c2ccc(-c3ccc(N4C[C@H](CNC(C)=O)OC4=O)cc3F)cn2)C=N1 [Compound 8]: -1

For COC(=O)NC[C@H]1CN(c2ccc(-c3ccc(N4C=NN(C(N)=O)CC4)nc3)c(F)c2)C(=O)O1 [Compound 26] , is the recorded MIC90 below the cut-off of 2 µg/mL?
-1

Does this molecule meet the criterion MIC90 < 2 µg/mL? CCN1CCN(c2ccc(-c3ccc(N4C[C@H](CO)OC4=O)cc3F)cn2)C=N1 [Compound 29]
-1

MIC90 strictly < 2 µg/mL for this molecule? COC(=O)NC[C@H]1CN(c2ccc(-c3ccc(N4C=NN(C(=O)CO)CC4)nc3)c(F)c2)C(=O)O1 [Compound 25]
-1

Determine whether this molecule shows MIC90 lower than 2 µg/mL (ties excluded): CC(=O)NC[C@H]1CN(c2ccc(-c3ccc(N4CCN(C(=O)CO)C=N4)nc3)c(F)c2)C(=O)O1 [Compound 54]
1

Hi there! Is MIC90 for CC(=O)NC[C@H]1CN(c2ccc(-c3ccc(N4C=NN(C(=O)COC(C)=O)CC4)nc3)c(F)c2)C(=O)O1 [Compound 12] below 2 µg/mL, do you know?
1

Item CC(=O)NC[C@H]1CN(c2ccc(-c3ccc(N4C=NN(CC(=O)OC(C)(C)C)CC4)nc3)c(F)c2)C(=O)O1 [Compound 9] : MIC90 beneath 2 µg/mL, strictly?
-1

Determine whether this molecule shows MIC90 lower than 2 µg/mL (ties excluded): NCC(=O)N1CCN(c2ccc(-c3ccc(N4C[C@H](Cn5ccnn5)OC4=O)cc3F)cn2)C=N1 [Compound 38]
-1

Quick check: MIC90 of C#CCN1C=NN(c2ccc(-c3ccc(N4C[C@H](CNC(C)=O)OC4=O)cc3F)cn2)CC1 [Compound 55] under 2 µg/mL?
-1

Consider C=CCN1CCN(c2ccc(-c3ccc(N4C[C@H](CNC(C)=O)OC4=O)cc3F)cn2)C=N1 [Compound 7] . Does its MIC90 lie strictly below 2 µg/mL?
-1

Given CNC(=O)N1CCN(c2ccc(-c3ccc(N4C[C@H](CNC(=O)OC)OC4=O)cc3F)cn2)C=N1 [Compound 27] , is recorded MIC90 strictly lower than 2 µg/mL?
-1

Answer whether the molecule CC(=O)NC[C@H]1CN(c2ccc(-c3ccc(N4C=NN(C)CC4)nc3)c(F)c2)C(=O)O1 [Compound 3] has MIC90 strictly less than 2 µg/mL
1

Is MIC90 strictly under 2 µg/mL for the entry O=C(C(O)CO)N1CCN(c2ccc(-c3ccc(N4C[C@H](Cn5ccnn5)OC4=O)cc3F)cn2)C=N1 (some centres unmarked) [Compound 37] ?
-1

Dear colleague, could you confirm whether MIC90 of CC(=O)NC[C@H]1CN(c2ccc(-c3ccc(N4C=NN(C(=O)CO)CC4)nc3)c(F)c2)C(=O)O1 [Compound 11] falls below 2 µg/mL? Thanks.
1
